assayName: osmotic lysis modulators in infected erythrocytes, primary screen, PSAC antagonist project, cell-based, P. falciparum Indochina, OD700, 3 h (AID 1156)
experimentalSetup: higher = more signal, called active from +8 up or from −8 down
Classify as follows. Reported z-score greater than or equal to 0.06: condition met. Reported z-score below: condition not met.

Sample answers from the record:
Qu. Check if z-score >= 0.06 (inclusive). Item: COc1ccc(CCN2C(=O)[C@@]3(c4ccc([N+](=O)[O-])cc4)CC(=O)N(C4CCCCC4)[C@@H]3c3ccc(CO)cc32)cc1
Ans. condition not met

Qu. Does the molecule C=CCOC(=O)[C@H]1[C@@H]2C(=O)O[C@@H](c3ccccc3)[C@@H](c3ccccc3)N2[C@@H](c2ccc(OCCOC(=O)[C@@H]3C[C@@H]4C(=O)N5CCC[C@H]5C(=O)N4[C@@H]3c3cccc(OCCO)c3)cc2)[C@]12C(=O)Nc1ccccc12 have recorded z-score that is 0.06 or more?
Ans. condition met

Qu. Check the entry CC(C)(C)OC(=O)CC[C@]1(C(=O)NCC(O)CO)COC(c2ccc(OCCCO)cc2)=N1 (some centres not stated) : does z-score equal or exceed 0.06?
Ans. condition met

Next:
Qu. Kindly determine if z-score recorded for C=CC[C@]12N=C(c3ccc(OCCCO)cc3)O[C@H]1c1ccccc1N(Cc1ccccc1)C2=O is above or exactly 0.06.
Ans. condition met

Qu. Say whether CC(C)OC(=O)C=C1C[C@@H](c2ccccc2C(F)(F)F)O[C@@H](c2ccccc2C(F)(F)F)O1 shows z-score of 0.06 or more.
Ans. condition met

Qu. State whether the measured z-score reaches 0.06, counting equality as reaching it, for CC(C)[C@@H](CO)NC(=O)[C@H]1[C@@H](c2ccccc2)N(c2ccccc2)O[C@@H]1C
Ans. condition not met

Qu. Check the entry C=CCN1C(=O)[C@]2(O[C@H](CCO)[C@@H]([Si](C)(C)c3ccc(OC)cc3)[C@@H]2C)c2cc(N3C(=O)c4cccc5cccc3c45)ccc21 : does z-score equal or exceed 0.06?
Ans. condition met

###

assayName: Plasmodium falciparum growth inhibition, primary screen, strain 3D7, DAPI fluorescence, 100 nL (AID 1184);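 further: parasites grown inside human red blood cells in medium with human serum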
experimentalSetup: P. falciparum 3D7 growth, 3 d, higher = more signal
Rule: z-score under 0.004 gives NO, otherwise YES.

Below, 10 compounds whose answers are already recorded.
Qu. In plain terms: is recorded z-score at least 0.004 for O=C(O)[C@@]1(CCS(=O)(=O)c2ccccc2)COC(c2ccc(OCCCO)cc2)=N1 ?
Ans. YES

Qu. Is reported z-score greater than or equal to 0.004 here: CN1C(=O)C2C=CC(C(O)c3ccc(-c4ccccc4)s3)N(N(c3ccccc3)c3ccccc3)C2C1=O (stereo not drawn)
Ans. YES

Qu. Assess whether reported z-score for CCCCCCC#C[Si](O[C@H](c1ccccc1)c1cn([C@H](CO)Cc2ccccc2)nn1)(C(C)C)C(C)C sits at 0.004 or higher.
Ans. YES

Qu. Reported z-score reaches at least 0.004 for C=CCOC(=O)[C@H]1[C@@H]2C(=O)O[C@@H](c3ccccc3)[C@@H](c3ccccc3)N2[C@@H](c2ccc(OCCOC(=O)[C@@H]3C[C@@H]4C(=O)N5CCC[C@H]5C(=O)N4[C@@H]3c3cccc(OCCO)c3)cc2)[C@]12C(=O)Nc1ccccc12 ?
Ans. NO

Qu. For this compound, is measured z-score 0.004 or higher? C=CCOC(=O)[C@@H]1[C@H]2C(=O)O[C@H](c3ccccc3)[C@H](c3ccccc3)N2[C@H](c2ccc(OCCOC(=O)[C@@H]3C[C@@H]4C(=O)N[C@@H](CCCCN(C)C)C(=O)N4[C@@H]3c3ccc(O)cc3)cc2)[C@@]12C(=O)Nc1ccc(I)cc12
Ans. NO

Qu. Threshold query (z-score >= 0.004) on CC(=O)N1Cc2ccccc2C[C@@]2(COC(c3ccc(OCCCO)cc3)=N2)C1=O
Ans. NO

Qu. For this compound, is measured z-score 0.004 or higher? CC1CC/C=C\[C@H]2OC34C=CCN(C(C)(C)C)C(=O)[C@H]3N(CCCCCCO)C(=O)[C@@H]4C2C(=O)O1 (stereo partly drawn)
Ans. YES

Qu. Is the recorded value of z-score equal to or greater than 0.004 for this compound? CN(C)CCCCCCNC(=O)[C@@H]1C[C@@H]2C(=O)N[C@@H](CCCCN)C(=O)N2[C@@H]1c1cccc(OCCO)c1
Ans. NO

Qu. Determine whether this compound has z-score no lower than 0.004: C=CCOC(=O)[C@H]1[C@@H]2C(=O)O[C@@H](c3ccccc3)[C@@H](c3ccccc3)N2[C@@H](c2ccc(OCCOC(=O)[C@@H]3C[C@@H]4C(=O)N[C@@H](CCCCN(C)C)C(=O)N4[C@@H]3c3ccc(O)cc3)cc2)[C@]12C(=O)Nc1ccc(I)cc12
Ans. NO

Qu. Decide: is the reported value of z-score for COC(=O)[C@@]1(Cc2ccc(F)cc2)[C@H]2c3cc(C(=O)N4CCCC4)n(Cc4ccc(C)o4)c3C[C@H]2CN1C(=O)c1ccccc1 equal to or greater than 0.004?
Ans. NO

Next:
Qu. Please check the record CC(C)C(CO)N1C(=O)[C@@H]2[C@H]3C(=O)OCC=C[C@H]3OC23C=CCN(C(C)C)C(=O)[C@@H]13 (stereo partly drawn) and state if its z-score is at or above 0.004.
Ans. NO

Qu. // inclusive: z-score at least 0.004? input: O=C(NCc1ccccc1)[C@@]1(CCS(=O)(=O)c2ccccc2)N=C(c2ccc(OCCCO)cc2)O[C@H]1c1ccccc1
Ans. NO

Qu. Is the recorded value of z-score equal to or greater than 0.004 for this compound? CN1C(=O)[C@]2(Cc3ccccc3)N=C(c3ccc(OCCCO)cc3)O[C@@H]2c2ccccc21
Ans. NO
